System: Staphylococcus aureus
Assay: microbe, parasite or virus in culture
Conditions: ATCC 43300, 18 h, ASSAY_TEST Inhibition of Bacterial Growth, detection method Absorption (OD600), MEDIA CAMHB, plate type 384well, NBS, CORNING #3640
Description: Antibacterial activity against Staphylococcus aureus MRSA ATCC 43300 (CO-ADD:GP_020); MIC in CAMBH media, using NBS plates, by OD(600)
RESULT TYPE: MIC

SMILES STRUCTURE	MIC
COc1cccc(C(=N)Nc2cc(C(=O)Nc3cc(C(=O)Nc4nc(C(=O)NCCCN(C)C)c(CCC(C)C)s4)n(C)c3)n(C)c2)c1.O=C(O)C(F)(F)F.O=C(O)C(F)(F)F	2 µg/mL
Cn1cc(NC(=O)c2cc(NC(=O)c3ccc(/C=C/c4ccc(C(F)(F)F)cc4)cc3)cn2C)cc1C(=O)NCCN1CCOCC1.O=C(O)C(F)(F)F	> 32 µg/mL
COc1cccc(/C=C/c2ccc(C(=O)Nc3cc(C(=O)Nc4cc(C(=O)NCCN5CCOCC5)n(C)c4)n(C)c3)cc2)c1.O=C(O)C(F)(F)F	> 32 µg/mL
Cn1cc(NC(=O)c2cc(NC(=O)c3cc4ccccc4cn3)cn2C)cc1C(=O)NCCN1CCOCC1.O=C(O)C(F)(F)F	> 32 µg/mL
CN(C)CCCNC(=O)c1cc(NC(=O)c2cc(NC(=O)c3cc(NC(=N)c4cnc5ccccc5c4)cn3C)cn2C)cn1C.O=C(O)C(F)(F)F.O=C(O)C(F)(F)F	> 32 µg/mL

q: Can you share its MIC? I mean this molecule: CC(C)CCc1sc(NC(=O)c2cc(NC(=O)c3cc(NC(=N)c4cnc5ccccc5c4)cn3C)cn2C)nc1C(=O)NCCCN(C)C.O=C(O)C(F)(F)F.O=C(O)C(F)(F)F
a: 1 µg/mL

q: Can you share its MIC? I mean this molecule: Cn1cc(NC(=O)c2cc(NC(=O)c3ccc(/C=C/c4cc5ccccc5nc4On4nnc5ccccc54)cc3)cn2C)cc1C(=O)NCCN1CCOCC1.O=C(O)C(F)(F)F
a: > 32 µg/mL

====

Known log10(CC50) of a selection of compounds
Tested on: HEK293
Assay: cells
Type: functional, Homo sapiens, ATCC CRL1573
Details: Homo sapiens, ATCC CRL1573, HEK293; ASSAY_TEST Inhibition of Cell Viability; detection method Resazurin; Fluorescence (ex560/em590); MEDIA DMEM with 10% FBS; plate type 384well; TC; CORNING #3712; time 18 hr; read-out: CC50
Please keep in mind that the values are log10 of CC50 expressed in µg/mL.

SMILES STRUCTURE	log10(CC50)
Cn1cc(NC(=O)c2cc(NC(=O)c3cc(NC(=O)c4ccc(Cl)cc4Cl)cn3C)cn2C)cc1C(=O)NCCCN1CCOCC1.O=C(O)C(F)(F)F	0.86

q: Can you share its log10(CC50)? I mean this compound: CC(C)n1cc(NC(=O)c2cc(NC(=O)c3ccc(/C=C/c4cnc5ccccc5c4)cc3)cn2C)cc1C(=O)NCCN1CCOCC1.O=C(O)C(F)(F)F.O=C(O)C(F)(F)F
a: 0.45

q: Can you share its log10(CC50)? I mean this compound: COc1ccc(C(=N)Nc2cc(C(=O)Nc3nc(C(=O)NCCN4CCOCC4)c(CCc4ccccc4)s3)n(C)c2)cc1
a: 0.87

q: Can you share its log10(CC50)? I mean this compound: COC1CCN(CCNC(=O)c2cc(NC(=O)c3cc(NC(=O)c4ccc(/C=C/c5ccc(N(C)C)cc5)nc4)cn3C)cn2C)CC1.O=C(O)C(F)(F)F.O=C(O)C(F)(F)F
a: 0.11

q: Can you share its log10(CC50)? I mean this compound: Cn1cc(NC(=O)c2cc(NC(=O)C(C)(C)C)cn2C)cc1C(=O)NCCC(=N)N.O=C(O)C(F)(F)F
a: 1.09

q: Can you share its log10(CC50)? I mean this compound: CC(C)CCc1sc(NC(=O)c2cc(NC(=O)c3cc(NC(=O)c4sc(N)nc4C(F)(F)F)cn3C)cn2C)nc1C(=O)NCCCN(C)C.O=C(O)C(F)(F)F
a: 0.39

q: Can you share its log10(CC50)? I mean this compound: Cn1cc(NC(=O)c2ccc(/C=C/c3ccncc3)cc2)cc1C(=O)Nc1cc(C(=O)NCCN2CCOCC2)n(CCCN2CCOCC2)c1.O=C(O)C(F)(F)F.O=C(O)C(F)(F)F
a: 0.67

q: Can you share its log10(CC50)? I mean this compound: COC1CCN(CCNC(=O)c2cc(NC(=O)c3cc(NC(=O)c4ccc(/C=C/c5cnc6ccccc6c5)cc4)cn3C)cn2C)CC1
a: 0.46

q: Can you share its log10(CC50)? I mean this compound: COCCOC1CCN(CCNC(=O)c2cc(NC(=O)c3cc(NC(=O)c4ccc(/C=C/c5ccc6nonc6c5)cc4)cn3C)cn2C)CC1.O=S(=O)(O)O
a: 0.58

q: Can you share its log10(CC50)? I mean this compound: COc1cccc(/C=C/c2ccc(C(=O)Nc3cc(C(=O)Nc4cc(C(=O)NCCC(=N)N)n(C)c4)n(C)c3)cc2)c1.O=C(O)C(F)(F)F
a: 1.20

Data provenance: ChEMBL document CHEMBL4513139
